Biological target: 5-hydroxytryptamine receptor 1A (Rattus norvegicus) (UniProt P19327)
Sequence (whole entry): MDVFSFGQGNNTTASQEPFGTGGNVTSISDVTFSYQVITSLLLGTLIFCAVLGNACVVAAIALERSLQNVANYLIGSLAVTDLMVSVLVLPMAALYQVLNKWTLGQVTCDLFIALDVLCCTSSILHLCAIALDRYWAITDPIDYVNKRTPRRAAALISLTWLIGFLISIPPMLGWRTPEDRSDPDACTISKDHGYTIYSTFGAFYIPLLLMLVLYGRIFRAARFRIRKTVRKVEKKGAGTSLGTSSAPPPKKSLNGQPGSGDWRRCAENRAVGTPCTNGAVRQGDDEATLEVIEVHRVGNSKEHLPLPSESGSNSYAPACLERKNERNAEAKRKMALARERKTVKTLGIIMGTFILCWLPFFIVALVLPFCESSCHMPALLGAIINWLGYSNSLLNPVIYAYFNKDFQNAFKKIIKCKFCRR
Assay: Inhibition of [3H]8-hydroxy-2-dipropylamino-1,2,3,4-tetrahydronaphthalene binding to 5-hydroxytryptamine 1A receptor in hippocampus region of rat brain; Less active
Type: tissue-based

[
  {
    "compound": "CCOC(=O)OC1(c2ccc(Cl)nc2)CCN(C)CC1",
    "Activity": "Weak activity"
  },
  {
    "compound": "CN1C2CCC1CC(O)(c1ccc(Cl)cn1)C2 (stereo not drawn)",
    "Activity": "Weak activity"
  },
  {
    "compound": "CN1CCC(O)(c2ccc(Cl)nc2)CC1",
    "Activity": "Weak activity"
  }
]

====

biological target: Muscarinic acetylcholine receptor M2 (Rattus norvegicus, UniProt P10980); assay: Inhibition of binding of [3H]quinuclidinyl benzilate to Muscarinic acetylcholine receptor M2 in rat heart atria at 10e-5 M of compound concentration
Sequence (P10980 whole entry): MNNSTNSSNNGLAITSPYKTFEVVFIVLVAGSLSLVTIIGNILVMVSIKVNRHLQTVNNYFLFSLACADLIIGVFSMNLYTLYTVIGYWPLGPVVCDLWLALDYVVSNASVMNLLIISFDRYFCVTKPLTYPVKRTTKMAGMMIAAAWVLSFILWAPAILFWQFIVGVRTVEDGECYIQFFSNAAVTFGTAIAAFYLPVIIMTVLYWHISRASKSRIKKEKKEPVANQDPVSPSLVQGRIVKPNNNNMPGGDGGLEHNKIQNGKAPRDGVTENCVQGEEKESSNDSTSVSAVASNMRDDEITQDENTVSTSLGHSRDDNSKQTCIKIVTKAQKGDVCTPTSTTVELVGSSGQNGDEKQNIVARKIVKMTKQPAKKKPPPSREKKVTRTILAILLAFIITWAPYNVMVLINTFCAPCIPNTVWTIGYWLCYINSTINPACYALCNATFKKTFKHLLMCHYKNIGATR
assayReadout: pIC50
Bear in mind: pIC50 is minus log10 of a mol/L concentration; give just that figure.

Query :: Any idea what pIC50 was measured for CN1CCC=C(c2ccc(Cl)nc2)C1.O=C(O)/C=C\C(=O)O ?
Result :: 5.45

Query :: Please give the measured pIC50 for this molecule: CN1C2C=C(c3ccc(Cl)nc3)CC1CC2 (configuration not stated)
Result :: 5.38

====

molecular target: Muscarinic acetylcholine receptor M1 (Rattus norvegicus); assay: Inhibition of binding of [3H]quinuclidinyl benzilate to Muscarinic acetylcholine receptor M1 in rat brain cortex at 10e-5 M of compound concentration; Less active; assay type: tissue-based
assayReadout: Activity

Some compounds with known Activity results, for comparison:
[
  {
    "compound": "CN1CCC(O)(c2ccc(Cl)nc2)CC1",
    "Activity": "Weak activity"
  },
  {
    "compound": "Clc1ccc(-c2cccnc2)cn1",
    "Activity": "Weak activity"
  },
  {
    "compound": "CN1C2C=C(c3ccc(Cl)cn3)CC1CC2 (stereo not given)",
    "Activity": "Weak activity"
  },
  {
    "compound": "CCOC(=O)N1C2CCC1CC(O)(c1cccc(Cl)n1)C2 (stereo not given)",
    "Activity": "Weak activity"
  },
  {
    "compound": "CCOC(=O)OC1(c2ccc(Cl)nc2)CCN(C)CC1",
    "Activity": "Weak activity"
  }
]

Query :: Fill blank: measured Activity of the compound CCOC(=O)N1C2CCC1CC(O)(c1ccc(Cl)cn1)C2 (stereo not given) is ____.
Result :: Weak activity

Query :: Sample CN1C2CCC1CC(O)(c1ccc(Cl)cn1)C2 (stereo not given) — what was its Activity?
Result :: Weak activity

Query :: Activity lookup needed for CN1C2CCC1CC(O)(c1cccc(Cl)n1)C2 (stereo not given) , thanks.
Result :: Weak activity

Query :: For the compound shown here, CCOC(=O)N1C2CCC1CC(O)(c1ccc(Cl)nc1)C2 (stereo not given) , give the reported Activity.
Result :: Weak activity

Query :: What value of Activity has been recorded for this entry: CN1C2CCC1CC(O)(c1ccc(Cl)nc1)C2 (stereo not given)
Result :: Weak activity
